Test system: NCI-H358 (KRAS^G12C mutation) cell
Assay comment: Cell assay of antiproliferative activity against NCI-H358 cell (Celltiter-Glo, 5 days)
Type: cell-based
Settings: Homo sapiens, NCI-H358, 120 h, 5 days incubation
pIC50: −log10 of the molar value.
Assign YES to entries whose pIC50 meets or exceeds 7; assign NO to the rest.

# Compound smiles, Label class
rows = [
    ("C=CC(=O)N1CCN(c2nc(=O)n(-c3c(C(C)C)cccc3S(C)(=O)=O)c3nc(-c4ccc[nH]c4=O)c(F)cc23)[C@@H](C)C1", "NO"),
    ("C=CC(=O)N1CCN(c2nc(=O)n(-c3c(C)cccc3S(C)(=O)=O)c3nc(-c4c(F)cccc4Cl)c(F)cc23)[C@@H](C)C1", "NO"),
    ("C=CC(=O)N1CCN(c2nc(=O)n(-c3c(C4CC4)cccc3S(C)(=O)=O)c3nc(-c4ccccc4F)c(F)cc23)[C@@H](C)C1", "YES"),
    ("C=CC(=O)N1CCN(c2nc(=O)n(-c3c(C4CC4)cccc3S(C)(=O)=O)c3nc(-c4ccccc4Cl)c(F)cc23)[C@@H](C)C1", "YES"),
    ("C=CC(=O)N1CCN(c2nc(=O)n(-c3c(C4CC4)cccc3S(C)(=O)=O)c3nc(-c4c(O)cccc4F)c(F)cc23)[C@@H](C)C1", "YES"),
    ("C=CC(=O)N1CCN(c2nc(=O)n(-c3c(C4CC4)cccc3S(C)(=O)=O)c3nc(-c4c(F)cccc4F)c(F)cc23)[C@@H](C)C1", "YES"),
    ("C=CC(=O)N1CCN(c2nc(=O)n(-c3c(C(C)C)cccc3S(C)(=O)=O)c3nc(-c4ccnn4C)c(F)cc23)[C@@H](C)C1", "NO"),
    ("C=CC(=O)N1CCN(c2nc(=O)n(-c3c(C(C)C)cccc3S(C)(=O)=O)c3nc(-c4cncn4C)c(F)cc23)[C@@H](C)C1", "NO"),
    ("C=CC(=O)N1CCN(c2nc(=O)n(-c3c(C)cccc3S(C)(=O)=O)c3nc(-c4c(F)cccc4C(F)F)c(F)cc23)[C@@H](C)C1", "NO"),
    ("C=CC(=O)N1CCN(c2nc(=O)n(-c3c(C)cccc3S(C)(=O)=O)c3nc(-c4c(O)cccc4F)c(F)cc23)[C@@H](CC#N)C1", "NO"),
    ("C=CC(=O)N1CCN(c2nc(=O)n(-c3c(C(C)C)ccnc3S(C)(=O)=O)c3nc(-c4c(F)cccc4OC)c(F)cc23)[C@@H](C)C1", "YES"),
]

Value source: patent US20230118795A1
